protocolDetails: Inhibition of Plasmodium falciparum plasmepsin 4 preincubated for 30 mins followed by DABCYL-Glu-Arg-Nle-Phe-Leu-Ser-Phe-Pro-EDANS substrate addition by FRET assay
pIC50: −log10 of the molar value.
measurementType: pIC50

molecule: Nc1nc2cc(-c3ccccc3)ccc2c(=O)n1C[C@@H]1CC[C@H](c2ccccc2)O1 (racemic)
pIC50: 6.22
//
molecule: Nc1nc2cc(-c3ccccc3)ccc2c(=O)n1C[C@@H]1CC[C@@H](c2ccccc2)O1 (racemic)
pIC50: 5.96

(A) CCCCc1cccc(-c2ccc3c(=O)n(C[C@@H]4CC[C@H](c5ccccc5)O4)c(N)nc3c2)c1 (racemic)
(B) CCCCc1ccc(-c2ccc3c(=O)n(C[C@@H]4CC[C@H](c5ccccc5)O4)c(N)nc3c2)cc1 (racemic)
From the items above, decide which of A and B has the lower pIC50 reading. // respond with label for picked entry A
(A: 6.00, B: 6.70)

###

Entries with their measured IC50, system Cathepsin D (Homo sapiens, UniProt P07339):
measurementType: IC50 (µM)

Please review the following examples before continuing.
molecule: Nc1nc2cc(-c3ccccc3)ccc2c(=O)n1C[C@@H]1CC[C@H](c2ccccc2)O1 (racemic)
experimentalSystem: Cathepsin D (Homo sapiens, UniProt P07339)
Sequence (P07339 65-162 limits assumed): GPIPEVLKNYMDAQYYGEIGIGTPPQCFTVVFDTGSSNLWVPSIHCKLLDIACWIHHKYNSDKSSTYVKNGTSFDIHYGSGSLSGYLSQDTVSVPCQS
Sequence (P07339 169-412 limits assumed): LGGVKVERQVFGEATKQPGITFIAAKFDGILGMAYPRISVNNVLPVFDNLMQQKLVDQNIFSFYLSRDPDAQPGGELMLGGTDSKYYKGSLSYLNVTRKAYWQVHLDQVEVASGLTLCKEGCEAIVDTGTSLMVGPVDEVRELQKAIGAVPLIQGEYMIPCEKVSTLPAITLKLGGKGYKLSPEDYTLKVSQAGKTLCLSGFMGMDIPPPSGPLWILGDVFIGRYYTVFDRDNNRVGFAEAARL
IC50 (µM): 13.8

molecule: CC(C)[C@H]1CC[C@@H](Cn2c(N)nc3cc(-c4ccccc4)ccc3c2=O)O1 (racemic)
experimentalSystem: Cathepsin D (Homo sapiens, UniProt P07339)
IC50 (µM): 25

(P) Nc1nc2cc(-c3ccccc3)ccc2c(=O)n1C[C@@H]1CC[C@H](c2ccccc2)O1
(Q) Nc1nc2cc(-c3ccc(CCC4CC4)cc3)ccc2c(=O)n1C[C@@H]1CC[C@H](c2ccccc2)O1 (racemic)
(R) Nc1nc2cc(-c3ccc(CCC4CCCCC4)cc3)ccc2c(=O)n1C[C@@H]1CC[C@H](c2ccccc2)O1 (racemic)
(S) Nc1nc2cc(-c3ccc(CCCCCc4ccccc4)cc3)ccc2c(=O)n1C[C@@H]1CC[C@H](c2ccccc2)O1 (racemic)
(T) Nc1nc2cc(-c3ccccc3)ccc2c(=O)n1C[C@H]1CC[C@@H](c2ccccc2)O1
Order the entries by their reported IC50, beginning at the minimum. Output spec: labels arranged per the requested ranking. Q, T, P, S, R
(Q: 3.2 µM, T: 4.6 µM, P: 22 µM, S: 52 µM, R: 100 µM)

###

experimentalSystem: Plasmepsin II (Plasmodium falciparum, UniProt P46925)
Sequence (P46925 whole entry): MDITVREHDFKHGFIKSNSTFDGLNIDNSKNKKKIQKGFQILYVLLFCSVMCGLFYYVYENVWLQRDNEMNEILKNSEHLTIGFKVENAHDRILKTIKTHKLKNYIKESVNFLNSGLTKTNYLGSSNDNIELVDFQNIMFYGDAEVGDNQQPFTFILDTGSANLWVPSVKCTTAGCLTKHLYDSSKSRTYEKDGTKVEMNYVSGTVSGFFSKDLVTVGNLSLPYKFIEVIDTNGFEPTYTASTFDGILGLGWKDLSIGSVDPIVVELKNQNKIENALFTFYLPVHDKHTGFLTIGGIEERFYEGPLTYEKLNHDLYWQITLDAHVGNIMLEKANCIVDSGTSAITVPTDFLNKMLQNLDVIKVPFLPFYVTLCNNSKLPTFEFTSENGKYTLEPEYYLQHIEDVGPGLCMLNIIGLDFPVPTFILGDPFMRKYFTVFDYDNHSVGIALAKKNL
measurementType: IC50 (nM)

(1) Nc1nc2cc(-c3ccccc3)ccc2c(=O)n1C[C@@H]1CC[C@H](c2ccccc2)O1 (racemic)
(2) CC(C)[C@H]1CC[C@@H](Cn2c(N)nc3cc(-c4ccccc4)ccc3c2=O)O1 (racemic)
(3) Nc1nc2cc(-c3ccc(CCC4CCCCC4)cc3)ccc2c(=O)n1C[C@@H]1CC[C@H](c2ccccc2)O1 (racemic)
(4) Nc1nc2cc(-c3ccccc3)ccc2c(=O)n1C[C@@H]1CC[C@H](c2ccccc2)O1
(5) Nc1nc2cc(-c3ccccc3)ccc2c(=O)n1CC1CCC2(CCCCC2)O1 (racemic)
Order the entries above by descending IC50. To answer, write out the labels according to the requested order. 3, 5, 4, 2, 1

(a) Nc1nc2cc(-c3ccccc3)ccc2c(=O)n1CC1CC(c2ccccc2)CO1 (mixture of isomers)
(b) Nc1nc2cc(-c3ccccc3)ccc2c(=O)n1C[C@@H]1CC[C@H](c2ccc3ccccc3c2)O1 (racemic)
Pick one: a or b . Which one has the lower reported IC50? Mark your answer with the label of the selected entry. b

(I) Nc1nc2cc(-c3ccc(CCc4ccccc4)cc3)ccc2c(=O)n1C[C@@H]1CC[C@H](c2ccccc2)O1 (racemic)
(II) Nc1nc2cc(-c3ccc(CCCCCc4ccccc4)cc3)ccc2c(=O)n1C[C@@H]1CC[C@H](c2ccccc2)O1 (racemic)
Pick one: I or II . Which has the bigger IC50 number? The response must carry the label of the picked entry. II

###

protocolDetails: Inhibition of Plasmodium falciparum plasmepsin 4 preincubated for 30 mins followed by DABCYL-Glu-Arg-Nle-Phe-Leu-Ser-Phe-Pro-EDANS substrate addition by FRET assay
pIC50: −log10 of the molar value.
measurementType: pIC50

Some solved cases for reference:
compound: CC(C)CCc1ccc(-c2ccc3c(=O)n(C[C@@H]4CC[C@H](c5ccccc5)O4)c(N)nc3c2)cc1 (racemic)
pIC50: 6.40
//
compound: CC(C)[C@H]1CC[C@@H](Cn2c(N)nc3cc(-c4ccccc4)ccc3c2=O)O1 (racemic)
pIC50: 5.82
//
compound: Nc1nc2cc(-c3ccc(CCC4CCCCC4)cc3)ccc2c(=O)n1C[C@@H]1CC[C@H](c2ccccc2)O1 (racemic)
pIC50: 5.92

(a) Nc1nc2cc(-c3ccc(CCC4CC4)cc3)ccc2c(=O)n1C[C@@H]1CC[C@H](c2ccccc2)O1 (racemic)
(b) Nc1nc2cc(-c3ccccc3)ccc2c(=O)n1C[C@@H]1CC[C@H](c2ccc3ccccc3c2)O1 (racemic)
(c) Nc1nc2cc(-c3ccc(C4CCCCC4)cc3)ccc2c(=O)n1C[C@@H]1CC[C@H](c2ccccc2)O1 (racemic)
(d) Nc1nc2cc(-c3ccc(CCCc4ccccc4)cc3)ccc2c(=O)n1C[C@@H]1CC[C@H](c2ccccc2)O1 (racemic)
Descending sort on pIC50 required. Sort and list the labels as requested. d, a, c, b
(d: 6.89, a: 6.52, c: 6.10, b: 5.89)

###

protocolDetails: Inhibition of Plasmodium falciparum plasmepsin 4 preincubated for 30 mins followed by DABCYL-Glu-Arg-Nle-Phe-Leu-Ser-Phe-Pro-EDANS substrate addition by FRET assay
pIC50: −log10 of the molar value.
measurementType: pIC50

Use these answered entries as a reference point.
compound: Nc1nc2cc(-c3ccc(CCCCCc4ccccc4)cc3)ccc2c(=O)n1C[C@@H]1CC[C@H](c2ccccc2)O1 (racemic)
measurementType: pIC50
resultValue: 5.70
--
compound: Nc1nc2cc(-c3ccccc3)ccc2c(=O)n1C[C@H]1CC[C@@H](c2ccccc2)O1
measurementType: pIC50
resultValue: 6.30
--
compound: Nc1nc2cc(-c3ccc(CCc4ccccc4)cc3)ccc2c(=O)n1C[C@@H]1CC[C@H](c2ccccc2)O1 (racemic)
measurementType: pIC50
resultValue: 6.15

(P) Nc1nc2cc(-c3ccccc3)ccc2c(=O)n1CC1CC(c2ccccc2)CO1 (mixture of isomers)
(Q) Nc1nc2cc(-c3ccc(CCCCc4ccccc4)cc3)ccc2c(=O)n1C[C@@H]1CC[C@H](c2ccccc2)O1 (racemic)
Form: Entry with minimum pIC50 (choose one): P / Q Returns: label corresponding to the selected item. P

###

Let's go through some recorded pIC50 values for UniProt:P39898 together.
pIC50: −log10 of the molar value.
measurementType: pIC50

# example entries with known answers
molecule: Nc1nc2cc(-c3ccccc3)ccc2c(=O)n1CC1CCC2(CCCCC2)O1 (racemic)
experimentalSystem: UniProt:P39898
pIC50: 5.70
//
molecule: Nc1nc2cc(-c3ccccc3)ccc2c(=O)n1C[C@@H]1CC[C@H](c2ccccc2)O1 (racemic)
experimentalSystem: UniProt:P39898
pIC50: 5.89
//
molecule: Nc1nc2cc(-c3ccccc3)ccc2c(=O)n1C[C@@H]1CC[C@@H](c2ccccc2)O1 (racemic)
experimentalSystem: UniProt:P39898
pIC50: 5.62

(P) Nc1nc2cc(-c3ccccc3)ccc2c(=O)n1C[C@@H]1CC[C@H](c2ccc3ccccc3c2)O1 (racemic)
(Q) CC(C)[C@H]1CC[C@@H](Cn2c(N)nc3cc(-c4ccccc4)ccc3c2=O)O1 (racemic)
Given P and given Q , which shows the smaller recorded pIC50? State the label of the item chosen. P
(P: 5.43, Q: 5.64)

###

This document collects IC50 values reported for Plasmepsin I (Plasmodium falciparum, UniProt P39898).
measurementType: IC50 (µM)

Consider the reported IC50 for these molecules:
molecule: Nc1nc2cc(-c3ccc(CCCc4ccccc4)cc3)ccc2c(=O)n1C[C@@H]1CC[C@H](c2ccccc2)O1 (racemic)
measurementType: IC50
unitDescriptor: µM
resultValue: 3.2
//
molecule: Nc1nc2cc(-c3ccc(CCC4CC4)cc3)ccc2c(=O)n1C[C@@H]1CC[C@H](c2ccccc2)O1 (racemic)
measurementType: IC50
unitDescriptor: µM
resultValue: 0.48

(a) Nc1nc2cc(-c3ccc(CCC4CCCCC4)cc3)ccc2c(=O)n1C[C@@H]1CC[C@H](c2ccccc2)O1 (racemic)
(b) Nc1nc2cc(-c3ccc(CCCCCc4ccccc4)cc3)ccc2c(=O)n1C[C@@H]1CC[C@H](c2ccccc2)O1 (racemic)
Return label of the item with the larger IC50. Candidates: a , b . // output: label of the selected item b

###

protocolDetails: Inhibition of Plasmodium falciparum plasmepsin 4 preincubated for 30 mins followed by DABCYL-Glu-Arg-Nle-Phe-Leu-Ser-Phe-Pro-EDANS substrate addition by FRET assay
pIC50: −log10 of the molar value.
measurementType: pIC50

These recorded examples may help you get a feel for the data.
molecule: Nc1nc2cc(-c3ccccc3)ccc2c(=O)n1C[C@@H]1CC[C@H](c2ccccc2)O1
measurementType: pIC50
resultValue: 5.57
--
molecule: COC(=O)CCc1ccc(-c2ccc3c(=O)n(C[C@@H]4CC[C@H](c5ccccc5)O4)c(N)nc3c2)cc1 (racemic)
measurementType: pIC50
resultValue: 6.40
--
molecule: Nc1nc2cc(-c3ccccc3)ccc2c(=O)n1CC1CCC2(CCCCC2)O1 (racemic)
measurementType: pIC50
resultValue: 5.52

(I) CCCCCc1ccc(-c2ccc3c(=O)n(C[C@@H]4CC[C@H](c5ccccc5)O4)c(N)nc3c2)cc1 (racemic)
(II) Nc1nc2cc(-c3ccccc3)ccc2c(=O)n1C[C@@H]1CCCO1 (racemic)
Select one. Lower pIC50: I or II # answer = label of selected item II
(II: 5.89, I: 7.00)
